- tested.system: T1, Recombinant human MASP1 enzyme (fragment corresponding to amino acids 297-699, C-terminal His Tag) (human, UniProt P48740 297-699)
- T1 sequence: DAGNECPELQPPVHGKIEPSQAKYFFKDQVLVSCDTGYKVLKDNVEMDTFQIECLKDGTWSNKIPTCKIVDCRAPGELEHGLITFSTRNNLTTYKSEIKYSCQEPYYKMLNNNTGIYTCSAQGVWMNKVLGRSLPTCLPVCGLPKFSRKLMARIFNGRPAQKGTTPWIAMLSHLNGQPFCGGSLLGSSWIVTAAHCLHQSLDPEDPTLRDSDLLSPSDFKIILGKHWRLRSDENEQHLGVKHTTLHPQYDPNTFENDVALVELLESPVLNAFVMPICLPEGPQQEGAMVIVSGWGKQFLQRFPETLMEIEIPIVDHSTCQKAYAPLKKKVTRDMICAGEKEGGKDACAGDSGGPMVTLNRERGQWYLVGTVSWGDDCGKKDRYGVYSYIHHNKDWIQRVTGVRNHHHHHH
- test.method.notes: cell-based or functional assay
Numbered stars: 1 amine (or outer) side, 2 acyl side, 3 side chain; on linkers, the order of the positions; unused ones are H or OH. Bridge positions count the residues as written; N and C are the ends. Square brackets hold non-standard residues; d marks the D form. Ends that are not written are not given here. * marks the point of attachment. X14 = (2,4-dioxoimidazolidin-1-yl)acetic acid, O=C1CN(CC(=O)*)C(=O)N1; Ida = iminodiacetic acid, O=C(CN(CC(=O)[*:3])[*:1])[*:2]; Oic = O=C(O)[C@@H]1C[C@@H]2CCCC[C@@H]2N1; Pen = CC(C)(S)[C@H](N)C(=O)O; Ahx = NCCCCCC(=O)O; Sar = CNCC(=O)O
In this section, each of the binders is paired with its reported human MASP1 IC50.
Please reply with the bare figure in nM and do not write the unit itself.

[Sar]ICSRSLP[Oic]I[Pen]IPD[Ahx]-OH (disulfide 3-11; N-terminus assumed; SMILES CC[C@H](C)[C@H](NC(=O)CNC)C(=O)N[C@H]1CSSC(C)(C)[C@@H](C(=O)N[C@H](C(=O)N2CCC[C@H]2C(=O)N[C@@H](CC(=O)O)C(=O)NCCCCCC(=O)O)[C@@H](C)CC)NC(=O)[C@H]([C@@H](C)CC)NC(=O)[C@@H]2C[C@@H]3CCCC[C@@H]3N2C(=O)[C@@H]2CCCN2C(=O)[C@H](CC(C)C)NC(=O)[C@H](CO)NC(=O)[C@H](CCCNC(=N)N)NC(=O)[C@H](CO)NC1=O) [((N-Me)G)-IC+SRSLP-(Oic)-I-(Pen)+IPD-(Ahx)-OH]	0.41

Lookup result for [dP]ICSRSLP[Oic]I[Pen]IP[Ida]-OH (disulfide 3-11; also: HCl salt) [pIC+SRSLP-(Oic)-I-(Pen)+IP-(Ida)-OH (HCl salt)] ; measured human MASP1 IC50: 7.5

Short answer for X14-ICSRSLP[Oic]I[Pen]IPD-OH (disulfide 2-10; SMILES CC[C@H](C)[C@H](NC(=O)CN1CC(=O)NC1=O)C(=O)N[C@H]1CSSC(C)(C)[C@@H](C(=O)N[C@H](C(=O)N2CCC[C@H]2C(=O)N[C@@H](CC(=O)O)C(=O)O)[C@@H](C)CC)NC(=O)[C@H]([C@@H](C)CC)NC(=O)[C@@H]2C[C@@H]3CCCC[C@@H]3N2C(=O)[C@@H]2CCCN2C(=O)[C@H](CC(C)C)NC(=O)[C@H](CO)NC(=O)[C@H](CCCNC(=N)N)NC(=O)[C@H](CO)NC1=O) [((2,4-dioxoimidazolidin-1-yl)acetic acid)-IC+SRSLP-(Oic)-I-(Pen)+IPD-OH] : human MASP1 IC50 was 17
